- Method: Toxicity liver stage against HepG2, at 10uM
- Assay type: cell-based
- Set-up: test concentration 10 uM, cell line HepG2-A16-CD81EGFP
- Run Conditions: human, HepG2-A16-CD81EGFP cells; read-out: INHIBITION
Experimental Readout: cytotoxicity at 10 µM (%)
Express the result in % but write the number alone.

Take a look at these entries with their results.
>  <Molecule>
O=C(CCCc1ccccc1)N1CCC(Nc2cccnn2)CC1

>  <Units Text>
%

>  <cytotoxicity at 10 µM>
-5.89

$$$$
>  <Molecule>
COc1ccccc1C(O)CNC(=O)NCc1cccnc1OC (stereo unspecified)

>  <Units Text>
%

>  <cytotoxicity at 10 µM>
-4.48

$$$$

Give the measured cytotoxicity at 10 µM of CCOC(=O)CNC(=O)N1CCOC(Cc2ccc(OC)cc2)C1 (stereo unspecified) .
-7.99

Same read-out for O=C(c1n[nH]cc1Cl)N1CCOC(Cc2cccc(C(F)(F)F)c2)C1 (stereo unspecified) ?
4.19

Follow-up entry: `Cc1[nH]ncc1C(=O)NCC1CCC2(CC1)OCCO2`
-8.2

---

- Method: Toxicity liver stage against HepG2, at 10uM
- Format: cell-based
- Parameters: test concentration 10 uM, cell line HepG2-A16-CD81EGFP
- Run Conditions: human, HepG2-A16-CD81EGFP cells; read-out: INHIBITION
Experimental Readout: cytotoxicity at 10 µM (%)
The figure you give is taken to be in %; do not add the unit.

Some compounds with recorded cytotoxicity at 10 µM:
>  <Compound>
Cc1nnc(NC(=O)NCC(C)N2CCOCC2)s1 (configuration not stated)

>  <cytotoxicity at 10 µM (%)>
-10.6

$$$$
>  <Compound>
O=C(O)c1cccnc1CN1CCCC1CCc1ccccc1 (configuration not stated)

>  <cytotoxicity at 10 µM (%)>
10.9

$$$$
>  <Compound>
Cc1ccc2c(n1)N(C)CCN(Cc1ccco1)C2

>  <cytotoxicity at 10 µM (%)>
-4.97

$$$$
>  <Compound>
CC1c2cccn2CCN1C(=O)CCCc1nc(-c2ccco2)no1 (configuration not stated)

>  <cytotoxicity at 10 µM (%)>
7.16

$$$$
>  <Compound>
Cc1nc(C)c(CCNC(=O)NC2CC(=O)N(C(C)(C)C)C2)s1 (configuration not stated)

>  <cytotoxicity at 10 µM (%)>
-1.08

$$$$
>  <Compound>
Cc1cc(NC(=O)CNc2cccc(OC(F)F)c2C)n(C)n1

>  <cytotoxicity at 10 µM (%)>
9.47

$$$$

The record that follows has no cytotoxicity at 10 µM shown yet.
Entry under review: NC(=O)C1(c2cnccn2)CCCN1C(=O)Cc1ccsc1 (configuration not stated) . Reported cytotoxicity at 10 µM?
1.54

---

- Method: Toxicity liver stage against HepG2, at 10uM
- Type: cell-based
- Design: test concentration 10 uM, cell line HepG2-A16-CD81EGFP
- Run Conditions: human, HepG2-A16-CD81EGFP cells; read-out: INHIBITION
Below is a list of entries, each paired with its recorded cytotoxicity at 10 µM value.
Write it as a number; the unit % goes unstated.

>  <Compound>
c1cncc(OCc2nc(C3CC3)nn2-c2ccc3c(c2)OCCO3)c1

>  <cytotoxicity at 10 µM [%]>
2.4

$$$$
>  <Compound>
O=C(NCCO)c1sc2ncccc2c1C1CNCCO1 (stereo not drawn)

>  <cytotoxicity at 10 µM [%]>
11.2

$$$$
>  <Compound>
CO[C@@H]1CCN(Cc2cccc(C)n2)[C@@H]2CN(Cc3ccncc3)C[C@@H]21

>  <cytotoxicity at 10 µM [%]>
0.951

$$$$
>  <Compound>
Cc1cc(C)c(CNC(=O)N(C)Cc2ccoc2)c(=O)[nH]1

>  <cytotoxicity at 10 µM [%]>
-6.02

$$$$

Lab note: next compound to report on.
Requested field: cytotoxicity at 10 µM. Item: `CCn1cnnc1C1CCN(C(=O)COCCc2ccccc2)CC1`
0.602
